# ASSAYED_SYSTEM: CCR5/hRANTES (Cavia porcellus)
# Sequence (A0A286Y1F6 1-353): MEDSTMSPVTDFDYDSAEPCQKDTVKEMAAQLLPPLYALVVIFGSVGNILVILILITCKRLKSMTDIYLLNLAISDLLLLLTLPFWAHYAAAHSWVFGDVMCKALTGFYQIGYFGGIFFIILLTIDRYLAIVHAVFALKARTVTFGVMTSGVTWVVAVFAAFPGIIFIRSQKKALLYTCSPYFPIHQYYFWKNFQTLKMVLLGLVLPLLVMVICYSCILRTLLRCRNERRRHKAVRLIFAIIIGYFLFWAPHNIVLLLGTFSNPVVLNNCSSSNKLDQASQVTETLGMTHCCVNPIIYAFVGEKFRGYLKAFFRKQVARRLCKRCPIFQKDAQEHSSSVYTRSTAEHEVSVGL
# ASSAY_CONTEXT: read-out: CCR5/hRANTES Ca assay IC50; Guinea pig
TEST_READOUT: IC50

CCCCN1C(=O)[C@@H]([C@H](O)C2CCCCC2)NC(=O)C12CCN(Cc1ccc(Oc3ccc(C(=O)O)cc3)cc1)CC2.Cl :: > 30 µM

* * *

# ASSAY_CONTEXT: rat, 10 mg/kg, po
TEST_READOUT: BA (%)

CCCN1C(=O)[C@@H]([C@H](O)C2CCCCC2)NC(=O)C12CCN(Cc1ccc(Oc3ccc(C(=O)NC)cc3)cc1)CC2.Cl :: 11.2
CCCCN1C(=O)[C@@H]([C@H](O)C2CCCCC2)NC(=O)C12CCN(Cc1ccc(Oc3ccc(NS(C)(=O)=O)cc3)cc1)CC2.Cl :: 5
CCCCN1C(=O)[C@H](CC2CCCCC2)NC(=O)C12CCN(Cc1ccc(Oc3ccc(C(=O)O)cc3)cc1)CC2.Cl :: 34
CCCCN1C(=O)[C@@H]([C@H](O)C2CCCCC2)NC(=O)C12CCN(Cc1ccc(Oc3ccc(C(=O)NC)cc3)cc1)CC2.Cl :: 10
CCCCN1C(=O)[C@@H]([C@H](O)C2CCCCC2)NC(=O)C12CCN(Cc1ccc(Oc3ccc(C(=O)O)cc3)cc1)CC2.Cl :: 23
CCCCN1C(=O)C(CC2CCCCC2)NC(=O)C12CCN(Cc1ccc(Oc3ccc(C(=O)NC)cc3)cc1)CC2.Cl (centres unmarked) :: 1.9
CCCCN1C(=O)[C@@H]([C@H](O)C(C)C)NC(=O)C12CCN(Cc1ccc(Oc3ccc(C(=O)O)cc3)cc1)CC2.Cl :: 5.9
CCCCN1C(=O)C(C(C)C)NC(=O)C12CCN(Cc1ccc(Oc3ccccc3)cc1)CC2.Cl (centres unmarked) :: 1.3
